Values were extracted from PubChem BioAssay (NCI).

Below is a list of entries, each paired with its recorded growth inhibition value.
Experiment: NCI Yeast Anticancer Drug Screen. Data for the CLN2oe strain (AID 163);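 also: 0% = growth of vehicle-only control cultures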
Settings: S. cerevisiae CLN2oe strain, at 3.7 µM, active compounds read high
Compounds without any hit were thinned out: in the full panel of roughly 79,000, 15% have a hit.

>  <compound>
Cc1cccc(N2CCN(C(=O)/C(=C/c3ccccc3)NC(=O)c3ccccc3)CC2)c1

>  <quantity_unit>
%

>  <growth inhibition>
-6

$$$$
>  <compound>
Nc1nc(Nc2ccccc2)nc(Nc2ccccc2)n1

>  <quantity_unit>
%

>  <growth inhibition>
-6

$$$$
>  <compound>
Cc1cnc(/C=N\NC(N)=S)c2cccc(N)c12

>  <quantity_unit>
%

>  <growth inhibition>
-39

$$$$
>  <compound>
N=C(N)c1ccc(N=Nc2c(O)ccc3c2[nH]c2ccccc23)cc1

>  <quantity_unit>
%

>  <growth inhibition>
5

$$$$
>  <compound>
CC(C)(C)[Si](C)(C)OCC1OC(n2cnc3c(N)ncnc32)C2OC(=S)OC12 (stereo unspecified)

>  <quantity_unit>
%

>  <growth inhibition>
-3

$$$$
>  <compound>
O=[N+]([O-])c1ccc2nnnn2c1

>  <quantity_unit>
%

>  <growth inhibition>
1

$$$$
>  <compound>
Cc1ccc(C(C)C)c(C(=C2C=CC(=[N+](C)C)C=C2)c2c(C(C)C)ccc(C)c2O)c1O

>  <quantity_unit>
%

>  <growth inhibition>
26

$$$$
>  <compound>
Cc1c(N=Nc2ccc(Cl)cc2)c(C)n(C2OC(CO)C(O)C(O)C2O)c(=S)c1C#N (stereo unspecified)

>  <quantity_unit>
%

>  <growth inhibition>
-2

$$$$
>  <compound>
CCCC(=O)OC(OC(=O)CCC)c1ccc([N+](=O)[O-])o1

>  <quantity_unit>
%

>  <growth inhibition>
-8

$$$$
>  <compound>
Cc1ccc(SSc2ccc(C)cc2[N+](=O)[O-])c([N+](=O)[O-])c1

>  <quantity_unit>
%

>  <growth inhibition>
0

$$$$
>  <compound>
O=Cn1c2ccccc2c2ccccc21

>  <quantity_unit>
%

>  <growth inhibition>
-15

$$$$

====

Test: NCI Yeast Anticancer Drug Screen. Data for the sgs1 strain (AID 173);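 also: 0% = growth of vehicle-only control cultures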
Details: S. cerevisiae sgs1 mutant, at 1.2 µM, active compounds read high
About 79,000 compounds went through this panel and 15% of them were active in at least one assay; those are over-represented in the sample as a whole.

>  <compound>
O=C(Cc1ccccc1F)NC1=C(Cl)C(=O)c2ccccc2C1=O

>  <growth inhibition / %>
39

$$$$
>  <compound>
O=C(Nc1ccn(C2CC(O)C(COC(c3ccccc3)(c3ccccc3)c3ccccc3)O2)c(=O)n1)c1ccccc1 (stereo not drawn)

>  <growth inhibition / %>
6

$$$$
>  <compound>
O=C1OC(c2ccc(Cl)cc2)Sc2ccccc21 (stereo not drawn)

>  <growth inhibition / %>
2

$$$$
>  <compound>
O=Cn1c2ccccc2c2ccccc21

>  <growth inhibition / %>
-32

$$$$
>  <compound>
N=C(N)c1ccc(N=Nc2c(O)ccc3c2[nH]c2ccccc23)cc1

>  <growth inhibition / %>
0

$$$$
>  <compound>
O=C1C=CC(=O)N1c1ccc(Br)cc1Cl

>  <growth inhibition / %>
92

$$$$
>  <compound>
Cc1ccnc(NS(=O)(=O)c2ccc(Nc3c4ccccc4nc4ccccc34)cc2)n1

>  <growth inhibition / %>
24

$$$$
>  <compound>
O=c1c(Br)cc2c(-c3ccccc3)c3cc(Br)c(O)c(Br)c3oc-2c1Br

>  <growth inhibition / %>
0

$$$$
>  <compound>
CCCCCCCCCCCCOC1C(COCCN2CCCC2)OC2OC(C)(C)OC21 (stereo not drawn)

>  <growth inhibition / %>
22

$$$$
>  <compound>
O=S(=O)(O)CC[S][Sn]([S]CCS(=O)(=O)O)([c]1ccccc1)[c]1ccccc1

>  <growth inhibition / %>
-12

$$$$
>  <compound>
O=C(O)NCC1CCCCC1 (tested in a mixture with another compound)

>  <growth inhibition / %>
-4

$$$$
>  <compound>
O=[N+]([O-])c1ccc2nnnn2c1

>  <growth inhibition / %>
1

$$$$
>  <compound>
CCc1nc2ccc(N=Nc3c(O)ccc4ccccc34)cc2[nH]1

>  <growth inhibition / %>
1

$$$$
>  <compound>
[Cl][Pt+2][Cl].[NH-]CC1(C[NH-])CCCCC1

>  <growth inhibition / %>
-14

$$$$
>  <compound>
CN(C)N1C(=O)SCC(c2ccccc2)(c2ccccc2)C1=O

>  <growth inhibition / %>
-1

$$$$
>  <compound>
CC1C=CN(N(C)C)C2=C1C(=O)c1cnccc1C2=O (stereo not drawn)

>  <growth inhibition / %>
41

$$$$
>  <compound>
OC(c1ccc(Br)cc1)(c1cccs1)C1CC1 (stereo not drawn)

>  <growth inhibition / %>
17

$$$$
>  <compound>
CN(C)/N=N/c1nc[nH]c1C(N)=O

>  <growth inhibition / %>
-1

$$$$
>  <compound>
COc1ccc2nc3cccc([N+](=O)[O-])c3c(NCCCO)c2c1

>  <growth inhibition / %>
93

$$$$
>  <compound>
CCOc1nc(OCC)nc(-c2cccn2-c2ccccc2)n1

>  <growth inhibition / %>
16

$$$$
>  <compound>
O=C(O)CN(CCNC(=O)OCC1c2ccccc2-c2ccccc21)CCNC(=O)OCC1c2ccccc2-c2ccccc21

>  <growth inhibition / %>
0

$$$$
>  <compound>
O=CC(=C(I)I)c1ccccc1

>  <growth inhibition / %>
56

$$$$
>  <compound>
CC1=Cc2ccc(C)cc2C(=O)C1=O

>  <growth inhibition / %>
-1

$$$$

====

Assay: NCI Yeast Anticancer Drug Screen. Data for the mlh1 rad18 strain (AID 175)
Settings: S. cerevisiae mlh1 rad18 strain growth inhibition; at 5.0 µM (retest, dose inferred, filed as 0.5); active compounds read high
Description: Growth inhibition of yeast strains with defined genetic alterations is measured as a screen for potential anti-cancer activity. Selected strains with alterations in DNA damage repair or cell cycle control were exposed to compounds and growth inhibition was measured relative to vehicle treated controls. The strain used in this assay is mlh1 rad18
This is part of a sample that, as a whole, favours compounds with a hit. Of some 79,000 tested, about 15% had one in any assay.
endpoint_name: growth inhibition (%)

>  <compound>
Nc1ccc2ncc(Nc3ccc(Cl)c(Cl)c3)nc2c1

>  <data_value>
44

$$$$
>  <compound>
O=S(=O)(Oc1c(Cl)cc(Cl)cc1Cl)c1ccccc1

>  <data_value>
-7

$$$$
>  <compound>
O=CC(=C(I)I)c1ccccc1

>  <data_value>
18

$$$$
>  <compound>
[N-]=[N+]=NC1CC(n2ccc(=O)[nH]c2=O)OC1COC(c1ccccc1)(c1ccccc1)c1ccccc1 (stereo unspecified)

>  <data_value>
74

$$$$
>  <compound>
CCOc1nc(OCC)nc(-c2cccn2-c2ccccc2)n1

>  <data_value>
86

$$$$
>  <compound>
O=c1c(Br)cc2c(-c3ccccc3)c3cc(Br)c(O)c(Br)c3oc-2c1Br

>  <data_value>
67

$$$$
>  <compound>
O=C(CSS(=O)(=O)O)c1ccccc1

>  <data_value>
31

$$$$
>  <compound>
C[Si](C)(C)Cc1ccccc1C(=O)O

>  <data_value>
-2

$$$$
>  <compound>
O=S(=O)(O)CC[S][Sn]([S]CCS(=O)(=O)O)([c]1ccccc1)[c]1ccccc1

>  <data_value>
43

$$$$
>  <compound>
Cc1nc2ccc(Br)cc2c(=O)n1-c1ccc(NC2OCC(O)C(O)C2O)cc1 (stereo unspecified)

>  <data_value>
-38

$$$$
>  <compound>
O=C(CCCN1CCC2(CC1)OC(=O)N(c1ccccc1)C2=O)c1ccccc1

>  <data_value>
23

$$$$

====

Below is a list of entries, each paired with its recorded growth inhibition value.
Assay: NCI Yeast Anticancer Drug Screen. Data for the mec2-1 strain (AID 157)
Details: S. cerevisiae mec2-1 strain, at 50.0 µM (retest, dose inferred, filed as 5.0), active compounds read high
About 79,000 compounds went through this panel and 15% of them were active in at least one assay; those are over-represented in the sample as a whole.

>  <compound>
CCOc1nc(OCC)nc(-c2cccn2-c2ccccc2)n1

>  <quantity_unit>
%

>  <growth inhibition>
100

$$$$
>  <compound>
Cc1nc2ccccc2c(=O)n1NC(=O)c1ccc(CS)cc1

>  <quantity_unit>
%

>  <growth inhibition>
1

$$$$
>  <compound>
O=C(O)/C=C\C(=O)NNc1ccc(Br)cc1

>  <quantity_unit>
%

>  <growth inhibition>
99

$$$$
>  <compound>
CCOC(=O)c1[nH]c2cccc3c2c1CC(Br)C3=O (stereo not drawn)

>  <quantity_unit>
%

>  <growth inhibition>
96

$$$$
>  <compound>
CCOC(=O)C(NC(=O)c1ccccc1)[CH](c1ccccc1)[Sn]([c]1ccccc1)([c]1ccccc1)[c]1ccccc1 (stereo not drawn)

>  <quantity_unit>
%

>  <growth inhibition>
40

$$$$
>  <compound>
C[n+]1c(-c2ccc(NC(=O)c3ccc(C(=O)Nc4ccc(-c5cn6ccccc6[n+]5C)cc4)cc3)cc2)cn2ccccc21

>  <quantity_unit>
%

>  <growth inhibition>
98

$$$$
>  <compound>
CC(C)c1ccc(C2NC(=S)NC3=C2c2ccccc2C3=O)cc1 (stereo not drawn)

>  <quantity_unit>
%

>  <growth inhibition>
-11

$$$$
>  <compound>
Oc1ccc(Br)cc1C=Nc1cccc(C(F)(F)F)c1

>  <quantity_unit>
%

>  <growth inhibition>
97

$$$$
>  <compound>
CCCCOc1ccc(Nc2c3ccccc3nc3ccccc23)cc1

>  <quantity_unit>
%

>  <growth inhibition>
89

$$$$
>  <compound>
NCC(O)CSCc1ccc(Cl)cc1 (stereo not drawn)

>  <quantity_unit>
%

>  <growth inhibition>
5

$$$$
>  <compound>
COc1ccc(CCN2C(=O)C=CC2=O)cc1OC

>  <quantity_unit>
%

>  <growth inhibition>
42

$$$$
>  <compound>
CCSc1c2ccccc2c(-c2nc(F)nc(F)n2)n1CCc1ccccc1

>  <quantity_unit>
%

>  <growth inhibition>
0

$$$$
>  <compound>
Cc1ccc(Nc2n[nH]c(=S)s2)cc1C

>  <quantity_unit>
%

>  <growth inhibition>
95

$$$$
>  <compound>
CCC(C)C(=O)OCC(=O)c1ccc(-c2ccccc2)cc1 (stereo not drawn)

>  <quantity_unit>
%

>  <growth inhibition>
0

$$$$
>  <compound>
Nc1c([N+](=O)[O-])cc2c3c(cccc13)CC2

>  <quantity_unit>
%

>  <growth inhibition>
29

$$$$
>  <compound>
CCCCCC/C(C)=N/Nc1ccc([N+](=O)[O-])cc1[N+](=O)[O-]

>  <quantity_unit>
%

>  <growth inhibition>
43

$$$$
>  <compound>
COC(=O)C1(N2CCOCC2)CCC([C@@H](c2ccccc2)C(C)[N+](=O)[O-])C1 (stereo partly drawn)

>  <quantity_unit>
%

>  <growth inhibition>
2

$$$$
>  <compound>
CN(Cc1cccc2ccccc12)Cc1cccc2ccccc12

>  <quantity_unit>
%

>  <growth inhibition>
26

$$$$
>  <compound>
COc1cc(C(C)(C)C)cc(OC)c1C(O)(c1c(OC)cc(C(C)(C)C)cc1OC)c1c(OC)cc(C(C)(C)C)cc1OC

>  <quantity_unit>
%

>  <growth inhibition>
96

$$$$
>  <compound>
COc1ccc2nc3cccc([N+](=O)[O-])c3c(NCCCO)c2c1

>  <quantity_unit>
%

>  <growth inhibition>
99

$$$$
>  <compound>
S=c1[nH]nc(Cc2ccccc2)c(=S)[nH]1

>  <quantity_unit>
%

>  <growth inhibition>
75

$$$$
>  <compound>
N=C(N)c1ccc(N=Nc2c(O)ccc3c2[nH]c2ccccc23)cc1

>  <quantity_unit>
%

>  <growth inhibition>
96

$$$$
>  <compound>
c1ccc(N/N=C2\CC(c3ccccc3)Oc3ccccc32)cc1 (stereo not drawn)

>  <quantity_unit>
%

>  <growth inhibition>
23

$$$$
